Hi there, I'd appreciate the recorded IC50 for every entry that follows.
measured target: BTK (Homo sapiens)
Construct: purchased Signalchem B10-10H
Sequence (Q06187 whole entry): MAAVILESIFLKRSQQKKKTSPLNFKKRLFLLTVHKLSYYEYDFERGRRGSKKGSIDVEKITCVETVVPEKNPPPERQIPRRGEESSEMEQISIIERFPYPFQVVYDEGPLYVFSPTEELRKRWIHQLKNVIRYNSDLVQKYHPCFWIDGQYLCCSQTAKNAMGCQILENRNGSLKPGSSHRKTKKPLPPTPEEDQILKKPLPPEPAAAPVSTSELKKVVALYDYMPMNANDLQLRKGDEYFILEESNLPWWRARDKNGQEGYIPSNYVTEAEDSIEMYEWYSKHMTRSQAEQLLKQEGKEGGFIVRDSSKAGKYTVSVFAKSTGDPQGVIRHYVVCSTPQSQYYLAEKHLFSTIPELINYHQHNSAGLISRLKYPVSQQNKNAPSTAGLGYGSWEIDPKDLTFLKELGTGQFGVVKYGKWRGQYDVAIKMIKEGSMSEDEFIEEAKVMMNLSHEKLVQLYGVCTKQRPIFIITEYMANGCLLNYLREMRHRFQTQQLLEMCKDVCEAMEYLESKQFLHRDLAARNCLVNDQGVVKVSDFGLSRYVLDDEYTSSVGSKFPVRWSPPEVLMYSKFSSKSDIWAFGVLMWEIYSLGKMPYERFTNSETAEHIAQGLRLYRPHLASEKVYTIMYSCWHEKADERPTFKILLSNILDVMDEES
test name: Inhibitory activity against BTK, ADP-Glo Kinase system (Promega)
Format: biochemical
run conditions: 1mM ATP; read-out: BTK IC50(nM) 1mM ATP
Procedure: Inhibitory activities against BTK and ITK were measured for the compounds prepared in the above Examples as follows. The inhibitory activities against BTK and ITK were evaluated using 'ADP-Glo™ Kinase system' (Promega Corporation). In the case of this evaluation method, activation was measured by quantifying the amount of ADP produced during the kinase reaction, which was utilized to measure the inhibitory activities against BTK and ITK. […]

In: Look up IC50 for this compound: C=CC(=O)N1CCC[C@@H](COc2nc(Nc3ncc(C)s3)cc3c2ccn3CC(C)C)C1
Out: 20 to 100 nM

In: Look up IC50 for this compound: C=CC(=O)N1C[C@@H](Oc2nc(Nc3ncc(C)s3)cc3c2ccn3CC(C)C)C[C@H]1C
Out: ≤ 20 nM

In: Look up IC50 for this compound: C=CC(=O)N1C[C@@H](Oc2nc(Nc3ncc(C)s3)cc3c2ccn3C2CCCC2)C[C@@H]1C
Out: 20 to 100 nM

In: Look up IC50 for this compound: C=CS(=O)(=O)N1C[C@H](F)[C@H](Oc2nc(Nc3ncc(C)s3)cc3c2ccn3CC(C)C)C1
Out: ≤ 20 nM

In: Look up IC50 for this compound: C=CC(=O)N1CCC[C@H]1COc1nc(Nc2ncc(C)s2)cc2c1ccn2C(C)C
Out: 20 to 100 nM

In: Look up IC50 for this compound: Cc1cnc(Nc2cc3c(ccn3CC(C)C)c(O[C@H]3CCN(C(=O)/C=C/CN(C)C)C3)n2)s1
Out: > 500 nM

In: Look up IC50 for this compound: C=CC(=O)N1C[C@H](F)[C@H](Oc2nc(Nc3ncc(C#N)s3)cc3c2ccn3CC(C)C)C1
Out: ≤ 20 nM

In: Look up IC50 for this compound: C=CC(=O)N1CCC[C@H](Oc2nc(Nc3ncc(C)s3)cc3c2ccn3CCOC)C1
Out: ≤ 20 nM

In: Look up IC50 for this compound: C=CC(=O)N1CC=C(c2nc(Nc3ncc(C)s3)cc3c2ccn3CC(F)F)C(C)C1 (stereo not shown)
Out: > 500 nM

In: Look up IC50 for this compound: C=CC(=O)N1CCC[C@H](Oc2nc(Nc3ncc(C)s3)cc3c2ccn3CC(C)C)C1
Out: ≤ 20 nM

In: Look up IC50 for this compound: C=CC(=O)N1CC[C@H](Oc2nc(Nc3ncc(C)s3)cc3c2ccn3C)C1
Out: ≤ 20 nM

In: Look up IC50 for this compound: C=CC(=O)N1CC=C(c2nc(Nc3cc(F)ccn3)cc3c2ccn3C(C)C)CC1
Out: ≤ 20 nM

In: Look up IC50 for this compound: C=CC(=O)N1CC[C@H](Oc2nc(Nc3cc(F)ccc3C)cc3c2ccn3C)C1
Out: > 500 nM

In: Look up IC50 for this compound: C=CC(=O)N1CC(Oc2nc(Nc3ncc(C)s3)cc3c2ccn3CCOC)C1
Out: ≤ 20 nM

In: Look up IC50 for this compound: C=CC(=O)N1CCC[C@H](Oc2nc(Nc3ncc(C)s3)cc3c2ccn3C(C)C)C1
Out: ≤ 20 nM

In: Look up IC50 for this compound: C=CC(=O)N1C[C@H](F)[C@H](Oc2nc(Nc3ccn(C)n3)cc3c2ccn3CC(C)C)C1
Out: > 500 nM

Data origin: patent EP4707277A1
